B1: STX11 (parent)
chain: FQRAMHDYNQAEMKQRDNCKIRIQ

variants of: B1; assay: protein stability index of a GFP-peptide fusion (GPS, HEK-293T) (PSI 1-6); higher = more stable; conditions: c terminus: a fixed tail appended;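 further: lentivirally expressed fusions sorted by FACS into six bins by GFP to DsRed ratio, PSI derived from sequencing read proportions per bin multiplied by bin number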
measurement-label: protein stability index
Answer as a number with no unit attached.

protein stability index in this record for H6Q : 2.66

protein stability index in this record for R16D : 3.28

protein stability index in this record for D7R : 2.12

protein stability index in this record for N18V : 2.17

protein stability index in this record for R22K : 2.42

protein stability index in this record for M5V : 2.63

protein stability index in this record for Q10V : 2.67

protein stability index in this record for K14T : 2.69

protein stability index in this record for M5H : 2.16

protein stability index in this record for I23P : 3.24

protein stability index in this record for H6F : 2.32

protein stability index in this record for A4R : 1.9

protein stability index in this record for I21R : 3.56
